# credit: PubChem BioAssay (NCI)

System: CCRF-CEM leukemia
method: NCI-60 one-dose screen, 48 h (100 = growth as untreated, 0 = no growth, -100 = all killed)
run conditions: 10 µM
This is part of a sample that, as a whole, favours compounds with a hit. Of some 83,000 tested, about 20% had one in any assay.
Output: class label from growth. Mapping: lower level: < 10%; middle level: ≥ 10% and < 40%; upper level: ≥ 40%

Previously resolved entries follow.
molecule | cat
CN1CCN(Cc2ccc(NC(=O)c3cncc(C#Cc4cnc5ccc(N[C@H]6CCOC6)nn45)c3)cc2C(F)(F)F)CC1 | lower level
O=C(NCCCCC(c1ccc(F)cc1)c1ccc(F)cc1)NCCCc1cccnc1 | lower level
CNC(=O)c1cc(-c2ccc(NC(=O)Nc3ccc(C)cc3)cc2)nc2cccnc12 | upper level
CN1CCN(c2ccc(C(=O)/C=C/c3ccc(OC(F)F)cc3)cc2)CC1 | middle level

In: Please indicate the class for O=C(NCCCCCCCCCC[P+](c1ccccc1)(c1ccccc1)c1ccccc1)c1ccc(-n2nc(-c3ccccc3O)nc2-c2ccccc2O)cc1 based on its growth.
Out: lower level

In: Please indicate the class for COc1ccccc1[C@H]1C(C(=O)c2ccc(Cl)cc2)C2(N[C@@H]1c1ccccc1)C(=O)Nc1ccccc12 (some centres undefined) based on its growth.
Out: lower level

In: Please indicate the class for COc1ccc2c(c1)N=C(C(=O)O)/C2=C/c1sc(Nc2ccc(O)cc2)nc1O based on its growth.
Out: upper level

In: Please indicate the class for C/C(=N\NC(N)=S)c1ccc(Nc2nc(SC(C)C)nc(-c3ccccc3)c2C#N)cc1 based on its growth.
Out: upper level

In: Please indicate the class for Cc1ccc(NC(=O)c2ccc(-n3c(=O)[nH]c4ccccc4c3=O)cc2)cc1 based on its growth.
Out: upper level

In: Please indicate the class for O=C1c2ccccc2C(=O)c2c1c(C(=O)c1ccc(Cl)cc1)n1c2ccc2c3ccccc3ccc21 based on its growth.
Out: upper level

In: Please indicate the class for O=C(CS(=O)(=O)c1oc(-c2ccc(Cl)cc2)nc1S(=O)(=O)c1ccc(Cl)cc1)N1CCOCC1 based on its growth.
Out: lower level

In: Please indicate the class for C=C1CCC2C3(C)COC(c4ccccc4F)OC3CCC2(C)C1C/C=C1/C(=O)OCC1O (centres undefined) based on its growth.
Out: middle level

In: Please indicate the class for CC[C@@]1(O)C(=O)OCc2c1cc1n(c2=O)Cc2c-1nc1cc(F)c(C)c3c1c2[C@@H](N)CC3 based on its growth.
Out: middle level

In: Please indicate the class for O=c1[nH][nH]c(Nc2ccccc2)c1N=Nc1ccc(F)cc1 based on its growth.
Out: upper level

In: Please indicate the class for Cc1ccc(NCC(=O)Nn2c(COc3ccccc3)nc3ccccc3c2=O)cc1 based on its growth.
Out: upper level

In: Please indicate the class for CCOc1ccc2ncc(C#Cc3cncc(C(=O)Nc4ccc(CN5CCN(C)CC5)c(C(F)(F)F)c4)c3)n2n1 based on its growth.
Out: lower level

In: Please indicate the class for CCOC(=O)C1=C(N)N(c2ccccc2)C2=C(C(=O)CC(C)(C)C2)C1c1ccc(Cl)cc1 (centres undefined) based on its growth.
Out: middle level

* * *

System: ACHN renal
method: NCI-60 one-dose screen, 48 h
run conditions: 10 µM
This is part of a sample that, as a whole, favours compounds with a hit. Of some 83,000 tested, about 20% had one in any assay. Calls of active or inactive are those of the source. How the source made its calls: active means growth percent below 10; inactive means the rest.
Your answer must be one of the following: 1 for active, -1 for inactive

Previously resolved entries follow.
molecule | cat
COc1ccc(-c2nc(S(=O)(=O)c3ccc(C)cc3)c(S(=O)(=O)CC(=O)N(C)Cc3ccccc3)o2)cc1 | 1
COC1CC(Cn2cc(COc3ccc4ccc(=O)oc4c3)nn2)C(OCc2ccccc2)C(OCc2ccccc2)C1OCc1ccccc1 (stereo not drawn) | -1
CCCCSc1nc(Nc2ccc(/C(C)=N/NC(N)=S)cc2)c(C#N)c(-c2ccc(OC)cc2)n1 | -1
COc1cc(/C=C/C(=O)c2ccc(NC(=O)CN3C(=O)NC(C)(c4ccccc4)C3=O)cc2)cc(OC)c1OC (stereo not drawn) | -1
c1ccc(C(=C(c2ccc(OCCN3CCCCC3)cc2)c2ccc(OCCN3CCCCC3)cc2)C2CCCC2)cc1 | -1

In: Test call, this molecule: O=c1oc2ccc(-c3ccc(F)cc3F)cc2c(=O)n1-c1ccc(F)cc1
Out: 1

In: Test call, this molecule: Cc1ccc(C(=O)NCCCNc2nc(Nc3ccc(N4CCN(C)CC4)cc3)nc3ccsc23)cc1
Out: -1

In: Test call, this molecule: O=c1[nH]c2ccccc2cc1CSc1ccc(Nc2nccc(-c3ccc4c(c3)OCO4)n2)cc1
Out: -1
